Test: Cytotoxicity test (MTT), HT-29
Type: cell-based
Conditions: human, HT-29 cells; HT-29, 48 h; read-out: IC50 (μM), cytotoxicity
ENDPOINT: IC50 at 48 h

Task: # return recorded IC50 at 48 h for input COCCOC(=O)Nc1nc(C)c(O)c(C)c1C
Output: > 100 µM

Task: # return recorded IC50 at 48 h for input CCCCOC(=O)Nc1nc(C)c(O)c(C)c1C
Output: > 100 µM

Task: # return recorded IC50 at 48 h for input Cc1nc(NS(=O)(=O)c2ccc([N+](=O)[O-])cc2)c(C)c(C)c1O
Output: > 100 µM

Task: # return recorded IC50 at 48 h for input CCCCNC(=S)Nc1nc(C)c(O)c(C)c1C
Output: > 100 µM

Task: # return recorded IC50 at 48 h for input Cc1nc(NC(=S)NC2CCCCC2)c(C)c(C)c1O
Output: > 100 µM

----------
Assay: Cytotoxicity test (MTT), U937
Type: cell-based
Details: human, U937 cells (monocytic blood cancer-derived cell line); U937, 48 h, 1 μM; read-out: Cell viability (% of control)
ENDPOINT: viability at 48 h, 1 µM (%)
Give the number; % is assumed, so skip it.

# example entries with known answers
# COMPOUND, RESULT UNIT, viability at 48 h, 1 µM
measured = [
    ("Cc1nc(NC(=O)Nc2ccccc2)c(C)c(C)c1O", "%", 87.1),
    ("Cc1nc(NS(=O)(=O)c2ccc([N+](=O)[O-])cc2)c(C)c(C)c1O", "%", 80.2),
    ("Cc1nc(NC(=O)OCC(C)C)c(C)c(C)c1O", "%", 80.9),
    ("Cc1nc(NC(=O)NS(=O)(=O)c2ccccc2)c(C)c(C)c1O", "%", 85.8),
    ("Cc1cccc(C(C)(C)C)c1NC(=O)Nc1nc(C)c(O)c(C)c1C", "%", 91.3),
    ("O=c1[nH]cc(F)c(=O)[nH]1 [5-Fluorouracil, reference compound]", "%", 75.7),
    ("Cc1ccc(S(=O)(=O)Nc2nc(C)c(O)c(C)c2C)cc1", "%", 96.1),
    ("Cc1nc(NC(=S)Nc2ccc(Cl)cc2)c(C)c(C)c1O", "%", 91.6),
]

Task: # return recorded viability at 48 h, 1 µM for input Cc1nc(NC(=O)OCCCl)c(C)c(C)c1O
Output: 83.4

Task: # return recorded viability at 48 h, 1 µM for input COCCOC(=O)Nc1nc(C)c(O)c(C)c1C
Output: 81.2

Task: # return recorded viability at 48 h, 1 µM for input Cc1nc(NS(=O)(=O)c2ccc(C(F)(F)F)cc2)c(C)c(C)c1O
Output: 87.5

Task: # return recorded viability at 48 h, 1 µM for input Cc1nc(NC(=S)NC2CCCCC2)c(C)c(C)c1O
Output: 97.6

Task: # return recorded viability at 48 h, 1 µM for input Cc1nc(NS(C)(=O)=O)c(C)c(C)c1O
Output: 95.7

Task: # return recorded viability at 48 h, 1 µM for input Cc1nc(NC(=S)NC(=O)c2ccccc2)c(C)c(C)c1O
Output: 91.7

Task: # return recorded viability at 48 h, 1 µM for input Cc1nc(NC(=O)Nc2cccc3ccccc23)c(C)c(C)c1O
Output: 90.9

----------
Test: Cytotoxicity test (MTT), HT-29
Format: cell-based
Conditions: human, HT-29 cells (colorectal cancer cell line); HT-29, 48 h, 1 μM; read-out: Cell viability (% of control)
Experimental: The human colorectal cancer cell line HT-29 and the monocytic blood cancer-derived cell line U937 were cultured in a RPMI 1640 medium containing 10% FBS and 1% penicillin/streptomycin (PS) at 37° C. under a condition of 5% CO2, and when the cells used herein were grown to 80% or more, they were subcultured at a ratio of 1:3. […]
Please assign not met whenever viability at 48 h, 1 µM is at or above 80%, and met whenever it is below.

Worked examples follow.
# MOLECULE SMILES, CATEGORY
data = [
    ("Cc1cccc(C(C)(C)C)c1NC(=O)Nc1nc(C)c(O)c(C)c1C", "met"),
    ("Cc1nc(NS(=O)(=O)c2ccc(C(F)(F)F)cc2)c(C)c(C)c1O", "not met"),
    ("Cc1nc(NC(=O)Nc2ccc(Cl)cc2)c(C)c(C)c1O", "not met"),
    ("Cc1nc(NC(=S)NC(C)C)c(C)c(C)c1O", "not met"),
    ("COCCOC(=O)Nc1nc(C)c(O)c(C)c1C", "not met"),
    ("Cc1nc(NC(=S)NC2CCCCC2)c(C)c(C)c1O", "met"),
    ("Cc1nc(NC(=S)Nc2ccccc2)c(C)c(C)c1O", "not met"),
    ("Cc1nc(NS(C)(=O)=O)c(C)c(C)c1O", "met"),
]

Task: Threshold test, viability at 48 h, 1 µM < 80%: Cc1nc(NS(=O)(=O)c2cccc3ccccc23)c(C)c(C)c1O
Output: not met

Task: Threshold test, viability at 48 h, 1 µM < 80%: Cc1nc(NC(=O)Nc2ccccc2)c(C)c(C)c1O
Output: not met

Task: Threshold test, viability at 48 h, 1 µM < 80%: CCCCOC(=O)Nc1nc(C)c(O)c(C)c1C
Output: not met

Task: Threshold test, viability at 48 h, 1 µM < 80%: Cc1nc(NC(=O)NS(=O)(=O)c2ccccc2)c(C)c(C)c1O
Output: met

Task: Threshold test, viability at 48 h, 1 µM < 80%: Cc1nc(NC(=O)OCCCl)c(C)c(C)c1O
Output: not met

Task: Threshold test, viability at 48 h, 1 µM < 80%: Cc1nc(NS(=O)(=O)c2ccc([N+](=O)[O-])cc2)c(C)c(C)c1O
Output: not met

Task: Threshold test, viability at 48 h, 1 µM < 80%: Cc1nc(NC(=S)NC(=O)c2ccccc2)c(C)c(C)c1O
Output: met

Task: Threshold test, viability at 48 h, 1 µM < 80%: COC(=O)Nc1nc(C)c(O)c(C)c1C
Output: not met

----------
Experiment: Cytotoxicity test (MTT), U937
Type: cell-based
Settings: human, U937 cells (monocytic blood cancer-derived cell line); U937, 48 h, 100 μM; read-out: Cell viability (% of control)
ENDPOINT: viability at 48 h, 100 µM (%)
Give the number; % is assumed, so skip it.

# MOLECULE SMILES, RESULT UNIT, viability at 48 h, 100 µM
measured = [
    ("Cc1nc(NC(=O)Nc2ccccc2)c(C)c(C)c1O", "%", 78),
    ("Cc1cccc(C(C)(C)C)c1NC(=O)Nc1nc(C)c(O)c(C)c1C", "%", 75.5),
    ("Cc1nc(NC(=O)OCC(C)C)c(C)c(C)c1O", "%", 72.5),
    ("Cc1nc(NC(=S)NC(C)C)c(C)c(C)c1O", "%", 63.6),
]

As a next step, examine the compound that follows.
Task: # return recorded viability at 48 h, 100 µM for input Cc1nc(NC(=S)NC(=O)c2ccccc2)c(C)c(C)c1O
Output: 60.6

----------
Test system: TNF-α-induced adhesion of monocytes to intestinal epithelial cells
Experiment: Inhibitory activity against TNF-α-induced adhesion of monocytes (U937) to intestinal epithelial cells (HT-29)
Assay type: cell-based, human
Conditions: Homo sapiens, 1 μM; Table 8; read-out: 1 μM concentration inhibitory activity
ENDPOINT: inhibition at 1 µM (%)
Give the number; % is assumed, so skip it.

Task: # return recorded inhibition at 1 µM for input Cc1nc(NC(=O)Nc2ccccc2)c(C)c(C)c1O [Compound 16-2]
Output: 76.3

Task: # return recorded inhibition at 1 µM for input Cc1nc(NS(=O)(=O)c2cccc3ccccc23)c(C)c(C)c1O [Compound 22-5]
Output: 80.6

Task: # return recorded inhibition at 1 µM for input Nc1ccc(O)c(C(=O)O)c1 [Compound 5-ASA, 5-aminosalicylic acid, reference compound]
Output: 3.8

Task: # return recorded inhibition at 1 µM for input Cc1nc(NS(=O)(=O)c2ccc(C(F)(F)F)cc2)c(C)c(C)c1O [Compound 22-3]
Output: 87.3

----------
Assay: Cytotoxicity test (MTT), HT-29
Assay type: cell-based
Settings: human, HT-29 cells (colorectal cancer cell line); HT-29, 48 h, 100 μM; read-out: Cell viability (% of control)
Description: The human colorectal cancer cell line HT-29 and the monocytic blood cancer-derived cell line U937 were cultured in a RPMI 1640 medium containing 10% FBS and 1% penicillin/streptomycin (PS) at 37° C. under a condition of 5% CO2, and when the cells used herein were grown to 80% or more, they were subcultured at a ratio of 1:3. […]
Assign classes using reported viability at 48 h, 100 µM values and the ranges category 1 = under 60%, category 2 = from 60% up to 70%, category 3 = 70% and over, please.

# MOLECULE, CATEGORY
records = [
    ("Cc1nc(NC(=S)Nc2ccc(Cl)cc2)c(C)c(C)c1O", "category 2"),
    ("O=c1[nH]cc(F)c(=O)[nH]1 [5-Fluorouracil, reference compound]", "category 1"),
    ("Cc1nc(NC(=S)Nc2ccccc2)c(C)c(C)c1O", "category 3"),
]

Task: Assign a category based on measured viability at 48 h, 100 µM for Cc1nc(NS(=O)(=O)c2ccc([N+](=O)[O-])cc2)c(C)c(C)c1O and give only the class name.
Output: category 2

Task: Assign a category based on measured viability at 48 h, 100 µM for CCCNC(=O)Nc1nc(C)c(O)c(C)c1C and give only the class name.
Output: category 1
